Listing of recorded pKd by entry.
- target desc: RSV prefusion F (preF), subtype B (respiratory syncytial virus, subtype B)
- protocol details: BLI, IgG
pKd: −log10 of the molar value.

binder | pKd
ADI-20982 (antibody, V domains shown) VH: EVQLVESGPGLVKPSQTLSLTCSVSGVSISRGSYYWSWIRQPAGGGLEWIGRIYTSGVTRYNPSLESRVTISLDSSQNQFFLRLSSVTAADTAVYYCATRESASYSSGPDAFDIWGQGTTVTVSS VL: DIQMTQSPSTLSASVGDRVIITCRASQSVNSWLAWYQQKPGKAPKLLIYQASSLESGVPSRFSGSGSGTEFTLTINSLQPDDFATYYCQQYKTFSRPFGQGTKVEIK | 8.26
ADI-14593 (antibody, V domains shown) VH: QVQLVQSGAEVKKPGESLKISCKGSGYSFSSYWVAWVRQMPGKGLEWMGIIYPADSDTRYSPSFQGQVTISADKSDSTAYLQWGSLKASDTAMYYCARSLYGSGDYFDYWGQGTLVTVSS VL: NFMLTQPHSVSESPGRTVIISCTRSSGSIATNYVQWYQQRPGSAPTTVIYEDNQRPSGVPDRFSGSIDSSSNSASLTISGLKTEDEADYYCQSYGSGDVVFGGGTKVTVL | 9.45
ADI-21019 (antibody, V domains shown) VH: EVQLLESGGGLVRPGGSLRLSCAVSGFTFSGNALTWIRRAPGKGLEWVSTIGDSGGGSYYADSVKGRFTISRDNSKSTLYLQMNSLTAEDTAVYYCARDPYGDYRDYYGIDVWGQGTTVTVSS VL: EIVMTQSPLSLPVTPGEPASISCRSSQSLRHSNGYNYVDWYLQKPGQSPQLLIYLGSNRASGVPDRFRGSGSGTDFTLKISRVEAEDVGVYYCMQALQTPLTFGQGTKVEIK | 9.02
ADI-14586 (antibody, V domains shown) VH: QVQLVQSGGGLVKPGGSLRLSCAASGFTFSDYYMSWIRQAPGKGLEWVSYISSSSSYTNYADSVKGRFTISRDNAKNSLYLQMNSLRAEDTAVYYCAKRTEYCSSTGCAYYFDYWGQGTLVTVSS VL: QSVVTQPPSVSGAPGQRVTISCTGSSSNIGAGYDVHWYQQLPGTAPKLLIYGNSNRPSGVPDRFSGSKSGTSASLAITGLQAEDEADYYCQSYDSSLSGSVFGGGTKVTVL | 8.17
ADI-21056 (antibody, V domains shown) VH: EVQLLESGGGLVKPGGSLKLSCAASGFTLRSYYMHWVRQAPGRGLEWVSSISASSSYINYVDAVKGRFTVSRDNAKNSLFLQMNSLRAEDTAVYYCAREGGAMTNFGVVIDIWGQGTMVTVSS VL: SYVLTQPPSVSGAPGQRVTISCTGSSSNIGAGYDVHWYQQLPGTAPKLLIYTNTNRPSGVPDRFSGSKSGTSASLAITGLQSDDEADYYCQSYDSSLSGPVVFGGGTKLTVL | 9.65
ADI-14601 (antibody, V domains shown) VH: EVQLLESGGGLVQPGGSLRLSCAASGFTFSSYAMNWVRQAPGKGLEWVSTISGSGSSTYYADSVEGRFTISRDNSKNTLYLQMNSLRAEDTAIYYCAKEPRDMYIQQWLDSWGQGTLVTVSS VL: GIRLTQSPSSVSASVGDRVIITCRASQGIRSWLAWYQQKPGKAPKLLIYAASRLQSGVPSRFSGSGSETDFTLTISSLQPEDFASYYCQQANSFPLTFGGGTKVEIK | 8.71
ADI-14583 (antibody, V domains shown) VH: QVQLVQSGAEVKEPGASVKVSCKASGYTFTNYGISWVRQAPGQGLEWLGWISAYNGNIHYAQKVQGRVTMTTDTSTSTGFMELRSLRSDDTAVYYCAREPPVIAAGDFQHWGQGTLVTVSS VL: ETTLTQSPLSLPVTLGQPASISCRSSQSLVHSNGNTYLSWFQQRPGQSPRRLIYRVSNRDSGVPDRFSGSGSGTDFTLKISRVEAEDVGLYYCMQGTHWPPDFGQGTRLEIK | 8.80
ADI-21027 (antibody, V domains shown) VH: QVQLQESGPGLVKPSGTLSLTCVVSGGSIRSHNYWTWVRQPPGKGLEWIGEIYHSGNTNYNPSLKSRVTLSIDKSKNVFSLRLNSVTAADTAVYYCVGGGPFAPYYFENWGQGTLVTVSS VL: QSVLTQPPSVSGAPGQRVTISCTGSSSNIGAGYAVHWYHQLPGTAPKLLIYDNNNRPSGVPDRFSGSKSGSSASLAITGLQAEDEADYYCQSYDRSLSGYVFGTGTKLTVL | 9.47
ADI-21008 (antibody, V domains shown, also called Ab 259) VH: QVQLQESGAGLLKPSETLSLTCTVYGGTFSGYHWNWIRQPPGKGLEWIGEINHRENTDYNASLESRVTISVDTSKRQFSLKMNSVTVADTAVYYCARGIQVLTNLGTEVRVHQFLDLWGRGTLVTVSS VL: DIVLTQTPATLSLSPGERATLSCRASQSVSTYLAWYQQKPGQAPRLLIYDASNRAAGIPARFSGSGSGTDFTLTISSLEPEDFAVYYCQQRTNWLPLTFGGGTKVDIK | 8.38
ADI-21009 (antibody, V domains shown, also called Ab 260) VH: QVQLVQSGAEMKTPGASVKVSCKASGYSFSNYGFTWVRQAPGQGLEWMGWISGYSAKTNYAQDLQGRVTMTIDTSTSTSYMELRSLRSDDTAVYYCARDPLGYFGSGTYRGGAFDFWGQGTTVTVSS VL: QSALTQPASVSGSPGQSITLSCTGTNNDVGSYHLVSWYQQYPGKAPKLVIYEVTKRPSGVSNRFSGSKSGNTASLTISGLQPEDEADYYCCSYAGDRRIFGGGTKVTVL | 7.71
